- Tested on: Human papillomavirus type 1a protein E7 (residues 44-93)
- Protocol description: HPV1a E7 fragment binders on microarrays, primary screen, biochemical, small-molecule microarray, residues 44-93, 635 nm fluorescence (AID 1108);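 further: E7 fragment applied at 1 µg/mL in TBST for 1 h at 4 C; score combines spot fluorescence with its signal to noise ratio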
- Condition details: small-molecule microarray binding, fluorescence 635 nm; higher = more signal
We use 0.3 as the dividing line for composite z-score: on or above the line is Criterion met, below is Criterion not met.

Compound	Assigned category
CC(C)CON=C1[C@H]2CCn3c(=O)n(Cc4cc5c(cc4Cl)OCO5)c(=O)n3[C@H]2[C@H](O)[C@@H]2O[C@H]12	Criterion not met
CCOC(=O)[C@H](CC(C)C)NC(=O)CCC1CC(OC(=O)NCc2cccc3ccccc23)CC2(CCCC(COC(=O)NCCC(C)C)O2)O1 (stereo partly specified)	Criterion not met
CC(=O)OC[C@H]1OC(ON=CC[C@@H]2C=C[C@H](OC(C)=O)[C@@H](COC(C)=O)O2)[C@H](OC(C)=O)[C@@H](OC(C)=O)[C@@H]1OC(C)=O (stereo partly specified)	Criterion met
COC(=O)CC=C[C@@H](C)[C@@H](C=NOCC[C@@H]1C=C[C@H](OC(C)=O)[C@@H](COC(C)=O)O1)NS(=O)(=O)c1ccc(C)cc1	Criterion not met
CCOC(=O)[C@H](CC(C)C)NC(=O)CCC1CC(OC(=O)NCc2cccc3ccccc23)CC2(CCCC(COC(=O)NCCOC)O2)O1 (stereo partly specified)	Criterion met

Next compound, please.
In: Evaluate "CON=C[C@@H](NS(=O)(=O)c1ccc(C)cc1)[C@H](C)C=CCC(=O)OC" : composite z-score at minimum 0.3?
Out: Criterion not met

###

# maps each entry to its z-score
- Protocol description: basal S. cerevisiae growth modulation, no modifier, primary screen, OD600, strain BY4716, 24 h, basal condition (AID 1173)
- Condition details: OD600, 24 h, higher = more signal, called active from +8 up or from −8 down
Please give the numeric answer without any surrounding text.

A selection of reference data follows.
Compound	Result number
COC(=O)[C@H](C)NC(=O)CCC1CC(OC(=O)NCCc2ccc(F)cc2)CC2(CCCC(COC(=O)NCc3cccc(C(F)(F)F)c3)O2)O1 (some centres not stated)	1.05
O=C1[C@H]2[C@H]3[C@H](O)[C@H](O)CC(=NOC[C@@H](O)COCc4ccco4)[C@H]3CC[C@H]2C(=O)N1c1ccc(F)cc1F	-1.89
C[C@@H](c1ccccc1)N1C(=O)[C@H]2[C@H]3[C@H](O)[C@H](O)CC(=NO[C@@H]4O[C@H](CO)[C@@H](O)[C@H](O)[C@H]4O)[C@@H]3CC[C@H]2C1=O	0.0492
COC(=O)CC=C[C@H](C)[C@@H](OCc1cccc(Br)c1)[C@@H](C)[C@H](OC)C1CCCCC1	-0.949
CO[C@H]1COC(=O)CC=C[C@H](C)[C@@H](OC)COC(=O)[C@H](C)COC(=O)CC=C[C@@H]1C	-0.319
C[n+]1ccc(-c2ccc(CO)cc2)cc1	0.11

In: Bench note: what z-score did "CON=Cc1ccc(C(=O)N2[C@H](c3ccc(C)cc3)[C@@H](C)CC[C@H]2C(=O)OC)cc1" show?
Out: -2.35

###

- Protocol description: basal MM1S mitochondrial membrane potential changes, profiling panel, cell-based, JC-1 fluorescence, 24 h, 100 nL compound (AID 1170)
- Condition details: higher = more signal
Class definitions on z-score: low end: < -0.7; middle: ≥ -0.7 and < 0.5; high end: ≥ 0.5

These recorded examples may help you get a feel for the data.
Compound	Assigned category
C#CCCCON=C1C[C@@H](O)[C@@H](O)[C@@H]2[C@@H]3C(=O)N(Cc4ccccc4)C(=O)[C@@H]3CC[C@@H]12	middle
COC(=O)CC=C[C@@H](C)[C@@H](C=NO[C@@H](C)c1cn([C@H](CO)Cc2ccccc2)nn1)OC	high end
C[C@H]1CC[C@H]2C(=O)O[C@H](COc3ccc(C(C)(C)C)cc3)CN2[C@@H]1c1ccc(Br)cc1	high end
C[C@@H](c1ccccc1)N1C(=O)[C@H]2[C@H]3[C@H](O)[C@H](O)CC(=NO[C@@H]4O[C@H](CO)[C@@H](O)[C@H](O)[C@H]4O)[C@H]3CC[C@H]2C1=O	middle
CO[C@H]1COC(=O)[C@@H](C)COC(=O)[C@@H](OCc2ccccc2)C=C[C@@H]1C	middle
CCOC(=O)CCN1C(=O)[C@H]2[C@H]3[C@H](O)[C@H](O)CC(=NOCc4ccccc4)[C@H]3CC[C@H]2C1=O	low end
CO[C@@H]1COC(=O)[C@@H](C)NC(=O)CC=C[C@@H](C)[C@H](NS(=O)(=O)c2ccc(C)cc2)COC(=O)[C@H](C)NC(=O)CC=C[C@H]1C	middle
CCOC(=O)[C@H](Cc1ccccc1)NC(=O)CCC1CC(OC(=O)NCc2cccc3ccccc23)CC2(CCCC(COC(=O)NCCC(C)C)O2)O1 (stereo not given in full)	middle
CCN1C(=O)[C@H]2[C@H]3[C@H](O)[C@H](O)CC(=O)[C@@H]3CC[C@H]2C1=O	middle
O=C(NN=C1C[C@@H](O)[C@@H](O)[C@@H]2[C@@H]3C(=O)N(C[C@@H]4CCCO4)C(=O)[C@@H]3CC[C@H]12)OCc1ccccc1	low end

In: Which bin, given its z-score, does "CC(C)CON=C1C[C@@H](O)[C@@H](O)[C@@H]2[C@@H]3C(=O)N(c4ccc(F)cc4F)C(=O)[C@@H]3CC[C@H]12" occupy?
Out: low end

In: Now consider "COc1cccc([C@H]2Oc3ccc(OC)cc3C(=NOC[C@@H](O)COCc3ccco3)[C@@H]2O)c1" .
Out: low end

###

- Protocol description: S. cerevisiae RM11-1a growth modifiers, primary screen, strain RM11-1a, OD600, basal, 24 h (AID 1177);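 further: cultures grown under basal conditions with no added stressor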
- Condition details: OD600, 24 h, higher = more signal, called active from +8 up or from −8 down
Measure name: z-score
Could you keep your reply to the number by itself?

Guide cases for z-score, answers given:
Molecule	Result number
CCN1C(=O)[C@H]2[C@H]3[C@H](O)[C@H](O)CC(=NOCC(C)C)[C@@H]3CC[C@H]2C1=O	-0.589
COc1ccc(O[C@H]2C=C[C@@H](c3ccccc3)O[C@@H]2COC(=O)CCC(C)=NO[C@@H]2O[C@H](COC(C)=O)[C@@H](OC(C)=O)[C@H](OC(C)=O)[C@H]2OC(C)=O)cc1	1.37
CCOC(=O)NN=C1C[C@@H](O)[C@@H](O)[C@@H]2[C@@H]3C(=O)N(c4cccc(Oc5ccccc5)c4)C(=O)[C@@H]3CC[C@H]12	-1.39
CCCNC(=O)OC[C@H]1O[C@H](CCON=C(C)C)C=C[C@@H]1Oc1ccc(OC)cc1	-0.0159
O=C1C2=CC[C@H]3C(=O)N(c4cccc(Oc5ccccc5)c4)C(=O)[C@H]3[C@H]2[C@H](O)[C@@H]2O[C@H]12	-0.0295

In: Request the reported z-score associated with "CCOC(=O)NN=C1C[C@@H](O)[C@@H](O)[C@@H]2[C@@H]3C(=O)N(c4cccc(Oc5ccccc5)c4)C(=O)[C@@H]3CC[C@@H]12"
Out: -0.114

In: Now give it for "CC(C)=CCCC(C)=CCON=C1C[C@@H](O)[C@@H](O)[C@@H]2[C@@H]3C(=O)N(c4cccc(Oc5ccccc5)c4)C(=O)[C@@H]3CC[C@@H]12" too.
Out: -0.556

In: And then "C[C@@H]1NC(=O)[C@@H](C)COC(=O)[C@H](C)NC(=O)[C@@H](C)COC1=O" , what is it?
Out: -1.09

In: Can you handle "CC(CCN1CCCc2nc(C)c(C)cc21)=NO[C@@H](C)c1cc(-c2c(C)cc(C)cc2C)no1" next?
Out: 0.39

In: Try this molecule next: "O=C1[C@H]2[C@H]3[C@H](O)[C@H](O)CC(=NOCc4ccccc4)[C@@H]3CC[C@H]2C(=O)N1Cc1ccc2c(c1)OCO2"
Out: -0.0921

###

A collection of molecules and their measured composite z-score
- Test system: XIP peptide (Xip251-270) binding
- Protocol description: small-molecule binders of XIP peptide, primary screen, biochemical, small-molecule microarray, fluorescence 635/667 nm, 0.1 µg/mL protein (AID 1182)
- Condition details: fluorescent protein binding, 635 nm, higher = more signal, called active from +8 up or from −8 down
Reply: number alone, nothing else.

Previously resolved entries follow.
Molecule	Result number
CCCNC(=O)OC[C@H]1O[C@H](CCON=C(C)CCC(=O)OC[C@H]2O[C@H](c3ccccc3)C=C[C@@H]2Oc2ccc(OC)cc2)C=C[C@@H]1Oc1ccc(OC)cc1	0.146
CC(C)=CCCC(C)=CCON=C1C[C@@H](O)[C@@H](O)[C@@H]2[C@@H]3C(=O)N(c4ccc(F)cc4F)C(=O)[C@@H]3CC[C@H]12	-0.163
CCc1cc2c(nc1CC)CCN(CCC(C)=NO[C@H](C)c1cn([C@H](CO)Cc3ccccc3)nn1)C2	0.076
O=C1[C@H]2[C@H]3[C@H](O)[C@H](O)CC(=NOCc4ccccc4)[C@@H]3CC[C@H]2C(=O)N1c1ccc(F)cc1F	-0.228
COc1ccc(COC(=O)NN=C2C[C@@H](O)[C@@H](O)[C@@H]3[C@@H]4C(=O)N(c5cccc(Oc6ccccc6)c5)C(=O)[C@@H]4CC[C@@H]23)cc1	-0.378
CC(C)=NO[C@H](C)c1cn([C@H](CO)Cc2ccccc2)nn1	-0.662

In: I am curious: what composite z-score value has been reported for CCOC(=O)[C@H](CC(C)C)NC(=O)CCC1CC(OC(=O)NCc2cccc3ccccc23)CC2(CCCC(COC(=O)NCC3CCCCC3)O2)O1 (some centres undefined) ?
Out: -0.145

In: Note, next up: "CC(CCN1CCc2nc(-c3ccccc3)c(-c3ccccc3)cc2C1)=NOC[C@@H](O)[C@H]1O[C@@H]2OC(C)(C)O[C@@H]2[C@H]1O"
Out: 0.176

In: And "COC(=O)C1=C(C)N(Cc2ccccc2)[C@]23O[C@](C(=O)OC)(C(=O)N2[C@@H]1c1ccccc1)C(C(=O)OC)=C3C(=O)OC" ?
Out: 1.49

Source listed as PubChem BioAssay.
